// data source = patent US20190270809A1

- SUBJECT_OF_TEST: T1, human BASIGIN recombinant protein (human, UniProt P35613-2 22-205, limits assumed)
- T1 construct: also called hBASIGIN
- T1 sequence (looked up): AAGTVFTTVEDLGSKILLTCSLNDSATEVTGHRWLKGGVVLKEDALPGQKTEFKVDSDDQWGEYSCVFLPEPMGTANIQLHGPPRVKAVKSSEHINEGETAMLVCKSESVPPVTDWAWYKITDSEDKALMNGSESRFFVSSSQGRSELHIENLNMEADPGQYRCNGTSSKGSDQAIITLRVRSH
- ASSAY_DETAILS: SPR (ProteOn XPR36), human BASIGIN amine-coupled on chip, antibody as analyte
REPORTED_ENDPOINT: koff (s⁻¹)
Give the number; s⁻¹ is assumed, so skip it.

See these solved cases before continuing.
* mouse monoclonal antibody HAb18GC2 (6H8) (antibody, V domains shown, Mouse monoclonal from hybridoma CCTCC-C200636; also called mouse 6H8; Mouse monoclonal 6H8) VH: EVKLEESGGGLVQPGGSMKLSCVASGFTFSNFWMNWVRQSPEKGLEWVAEIRLKSNNYATHYAESVKGRFTISRDDSKSSVYLQMNNLRTEDTGIYYCTSYDYEYWGQGTLVTVSA VL: NIVMTQSPKSMSMSVGERVTLSCKASENVGTYVSWYQQKPEQSPKLLIYGASNRYTGVPDRFTGSGSATDFTLTISSVQAEDLADYHCGQSYSYPFTFGSGTKLEIK | 6.64e-05
* humanized antibody HP6H8-1 (antibody, V domains shown, Derived from scFv clone 11305; also called WBP229-205; pCI-WBP229-205L/H) VH: EVQLVESGGGLVQPGGSLRLSCAASGFTFSNFWMNWVRQAPGKGLEWVSEIRLKSNNYATHYAESVKGRFTISRDDSKNTLYLQMNSLKTEDTAVYYCTSYDYEYWGQGTLVTVSA VL: DIQMTQSPSTLSASVGDRVTLSCKASENVGTYVSWYQQKPGKAPKLLIYGASNRYTGVPSRFTGSGSGTDFTLTISSLQPEDFATYYCGQSYSYPFTFGSGTKLEIK | 4.96e-05
* humanized antibody HP6H8-3 (antibody, V domains shown, Derived from scFv clone 11242; also called WBP229-203; pCI-WBP229-203L/H) VH: EVQLVESGGGLVQPGGSLKLSCAASGFTFSNFWMNWVRQAPGKGLEWVAEIRLKSNNYATHYAESVKGRFTISRDDSKNTLYLQMNSLKTEDTAVYYCTSYDYEYWGQGTLVTVSA VL: DIQMTQSPSSLSASVGDRVTLTCKASENVGTYVSWYQQKPGQAPKLLIYGASNRYTGVPSRFTGSGSGTDFTLTISSLQPDDFATYYCGQSYSYPFTFGSGTKLEIK | 5.44e-05

# ---- query binder ----
Read the entry humanized antibody HP6H8-2 (antibody, V domains shown, Derived from scFv clone 11245; also called WBP229-204; pCI-WBP229-204L/H) VH: EVQLVESGGGLVQPGGSLKLSCAASGFTFSNFWMNWVRQAPGKGLEWVAEIRLKSNNYATHYAESVKGRFTISRDDSKNTLYLQMNSLRTEDTAVYYCTSYDYEYWGQGTLVTVSA VL: DIQMTQSPASLSASVGDRVTISCKASENVGTYVSWYQQKPGQTPKLLIYGASNRYTGVPSRFSGSGSGTDFTLTISSLQPDDFATYYCGQSYSYPFTFGSGTKLEIK and write its reported koff.
3.6e-05
